Assay summary: gradient 5% acetonitrile 3 min, to 50% in 2 min, to 85% in 15 min, held 3 min, 100 µL/min
Measurement parameters: column: Zorbax Extend-C18 2.1 x 50 mm; eluents: water / acetonitrile, 0.1% formic acid
Task for the reader: assign each of the following compounds its reported RP-LC retention time.
Lab book: enter the figure in s, no units written.

Reported RP-LC retention time, compound COCCc1nncn1C1CCN(C(=O)c2cc(Cl)ccc2F)CC1 : ____
657

Reported RP-LC retention time, compound COc1ccc(CCC(=O)Nc2cc(-c3cccnc3)no2)cc1 : ____
756

Reported RP-LC retention time, compound COc1nn(C)cc1C(=O)Nc1cc(-c2cccs2)nn1CCO : ____
630

Reported RP-LC retention time, compound O=C(NCc1cccs1)C1CN(C(=O)c2ccc(F)c(F)c2)C1 : ____
688

Reported RP-LC retention time, compound Cc1cccc(-n2c(N)cc(=O)nc2SCC(=O)Nc2nc(-c3ccccc3)cs2)c1 : ____
738

Reported RP-LC retention time, compound CCCN1C(=O)c2cc(S(=O)(=O)Nc3ccccc3OC)ccc2Oc2cccnc21 : ____
1080

Reported RP-LC retention time, compound CCOc1ccccc1NC(=O)Nc1ccc2nc(N3CCN(C)CC3)cc(C)c2c1 : ____
612

Reported RP-LC retention time, compound Cc1nc2cc(-c3noc(-c4ccc5c(c4)OCO5)n3)ccc2n(C)c1=O : ____
920

Reported RP-LC retention time, compound O=C([C@@H]1C[C@H](F)CN1C(=O)Nc1ccccc1Cl)N1CCCCC1 : ____
732

Reported RP-LC retention time, compound CCN(CC)C(=O)c1cc2c(s1)CCC(C(=O)O)C2 (stereo not given) : ____
703

Reported RP-LC retention time, compound CCN1C(=O)COc2ccc(-c3nc(NC(C)=O)sc3C)cc21 : ____
759

Reported RP-LC retention time, compound O=C(Nc1ccc2c(c1)OCCO2)N1CCN(Cc2ccccc2)c2ncccc21 : ____
731

Reported RP-LC retention time, compound Cc1nc(-c2csc(S(=O)(=O)N3CCCC(C(=O)N4CCCCCC4)C3)c2)no1 (stereo not given) : ____
902

Reported RP-LC retention time, compound O=C(CN1CCOCC1)N1CC(c2nc(CCOCC3CC3)no2)C1 : ____
577

Reported RP-LC retention time, compound Cc1cc(C)n2nc(SCC(=O)Nc3ccccc3C(F)(F)F)nc2n1 : ____
753
